// reported EC50 per item
Biological target: T1, full-length human Notch3 expressed on the cell surface (human, UniProt Q9UM47 40-2321)
T1 construct: whole, on cells; also called hNotch3; U2OS/hNotch3
T1 sequence (Q9UM47 40-2321): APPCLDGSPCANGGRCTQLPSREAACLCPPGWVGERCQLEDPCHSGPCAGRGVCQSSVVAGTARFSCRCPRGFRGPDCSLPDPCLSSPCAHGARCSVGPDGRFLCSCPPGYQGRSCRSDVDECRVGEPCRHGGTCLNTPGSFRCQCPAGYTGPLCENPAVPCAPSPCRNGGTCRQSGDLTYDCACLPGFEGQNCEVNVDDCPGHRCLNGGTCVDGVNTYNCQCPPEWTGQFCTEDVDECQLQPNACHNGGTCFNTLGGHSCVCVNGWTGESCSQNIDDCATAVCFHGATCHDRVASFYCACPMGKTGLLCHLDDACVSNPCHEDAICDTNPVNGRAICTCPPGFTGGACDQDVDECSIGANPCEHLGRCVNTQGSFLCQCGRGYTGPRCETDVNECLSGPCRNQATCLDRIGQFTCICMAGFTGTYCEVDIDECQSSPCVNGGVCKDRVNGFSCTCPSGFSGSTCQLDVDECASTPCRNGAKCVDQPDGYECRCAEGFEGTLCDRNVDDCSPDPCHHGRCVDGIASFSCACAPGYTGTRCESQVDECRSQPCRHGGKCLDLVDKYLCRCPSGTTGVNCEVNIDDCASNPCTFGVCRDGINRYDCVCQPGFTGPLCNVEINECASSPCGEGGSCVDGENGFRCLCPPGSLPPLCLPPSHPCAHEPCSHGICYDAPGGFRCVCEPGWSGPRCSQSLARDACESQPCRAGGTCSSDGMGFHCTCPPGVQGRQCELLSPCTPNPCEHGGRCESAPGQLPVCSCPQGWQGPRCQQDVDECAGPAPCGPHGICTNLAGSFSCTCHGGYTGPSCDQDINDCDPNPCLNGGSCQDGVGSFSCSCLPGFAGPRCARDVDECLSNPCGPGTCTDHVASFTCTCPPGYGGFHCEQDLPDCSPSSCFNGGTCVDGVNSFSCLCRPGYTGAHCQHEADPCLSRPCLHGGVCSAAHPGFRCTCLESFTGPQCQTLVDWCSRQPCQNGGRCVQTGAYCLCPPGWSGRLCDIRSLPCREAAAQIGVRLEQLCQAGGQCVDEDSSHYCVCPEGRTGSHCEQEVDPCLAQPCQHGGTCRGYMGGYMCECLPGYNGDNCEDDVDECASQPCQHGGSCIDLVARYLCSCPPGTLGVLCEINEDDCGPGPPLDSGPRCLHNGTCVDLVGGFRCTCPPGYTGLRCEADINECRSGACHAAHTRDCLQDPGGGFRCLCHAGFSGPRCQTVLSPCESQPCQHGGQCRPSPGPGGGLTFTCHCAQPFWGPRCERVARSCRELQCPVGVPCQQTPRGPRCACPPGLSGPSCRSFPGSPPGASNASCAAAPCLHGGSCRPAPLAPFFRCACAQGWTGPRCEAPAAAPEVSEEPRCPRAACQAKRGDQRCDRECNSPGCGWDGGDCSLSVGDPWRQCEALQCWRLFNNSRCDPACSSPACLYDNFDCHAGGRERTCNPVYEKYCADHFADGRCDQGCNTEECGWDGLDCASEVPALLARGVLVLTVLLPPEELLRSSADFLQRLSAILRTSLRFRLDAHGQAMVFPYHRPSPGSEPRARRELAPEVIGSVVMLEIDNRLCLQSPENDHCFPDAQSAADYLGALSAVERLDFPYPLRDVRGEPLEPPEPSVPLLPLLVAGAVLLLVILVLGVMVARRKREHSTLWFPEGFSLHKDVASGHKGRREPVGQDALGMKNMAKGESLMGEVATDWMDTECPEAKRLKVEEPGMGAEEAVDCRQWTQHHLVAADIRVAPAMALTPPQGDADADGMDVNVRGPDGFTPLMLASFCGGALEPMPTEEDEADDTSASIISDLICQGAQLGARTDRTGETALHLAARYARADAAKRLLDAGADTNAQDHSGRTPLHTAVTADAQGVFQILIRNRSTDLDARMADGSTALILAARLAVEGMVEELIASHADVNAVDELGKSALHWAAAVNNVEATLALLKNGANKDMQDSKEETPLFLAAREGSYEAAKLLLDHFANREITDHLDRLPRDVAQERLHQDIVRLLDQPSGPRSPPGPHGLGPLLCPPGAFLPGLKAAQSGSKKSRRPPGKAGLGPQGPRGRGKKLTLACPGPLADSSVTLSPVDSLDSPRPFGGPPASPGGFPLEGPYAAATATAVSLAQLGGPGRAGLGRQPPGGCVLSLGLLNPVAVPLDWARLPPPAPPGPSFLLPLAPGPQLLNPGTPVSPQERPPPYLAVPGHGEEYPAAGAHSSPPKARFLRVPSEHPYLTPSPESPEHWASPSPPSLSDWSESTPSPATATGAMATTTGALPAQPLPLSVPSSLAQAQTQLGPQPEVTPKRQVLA
Assay: cell-based ELISA, U2OS/hNotch3 cells
value-kind: EC50 (pM)

[[record]]
binder = "rat-human chimeric antibody 75 (ch75) (antibody, V domains shown, also called ch75-hIgG1; ch75-hulgG1) VH: QVKLLQSGAALVKPGASVKMSCKASGYAFTDYWVTWVKQSHGKSLEWIGEISPNSGGTNFNEKFKGKATLTVDKSTSTAYMELSRLTSEDSAIYYCTRGEIRYNWFAYWGQGTLVTVSS VL: NIVMTQSPKSMSISVGDRVTMNCKASQNVGNNIAWYQQKPGQSPKLLIYYASNRYTGVPDRFTGGGYGTDFTLTINSMQAEDAAFYYCQRLYNSPFTFGSGTKLEIK"
result_unit = "pM"
reported = 200

[[record]]
binder = "hu75 (humanized r75 variant VH1.9/VL1.3) (antibody, human IgG1, kappa, V domains shown, Human IgG1/kappa; also called hu75 VH1.9/VL1.3; hu75 VH1.9/V1.3) VH: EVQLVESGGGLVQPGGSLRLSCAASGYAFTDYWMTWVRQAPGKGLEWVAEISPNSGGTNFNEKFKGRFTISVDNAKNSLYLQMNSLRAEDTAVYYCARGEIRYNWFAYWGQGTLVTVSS VL: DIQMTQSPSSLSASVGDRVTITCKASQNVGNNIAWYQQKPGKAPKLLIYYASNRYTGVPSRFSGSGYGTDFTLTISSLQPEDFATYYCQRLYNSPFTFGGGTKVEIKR"
result_unit = "pM"
reported = 220

[[record]]
binder = "hu28 (humanized r28 variant VH1.0/VL1.0) (antibody, human IgG1, kappa, V domains shown, Human IgG1/kappa; also called hu28 VH1.0/VL1.0; hu28 VH1.0/V1.0) VH: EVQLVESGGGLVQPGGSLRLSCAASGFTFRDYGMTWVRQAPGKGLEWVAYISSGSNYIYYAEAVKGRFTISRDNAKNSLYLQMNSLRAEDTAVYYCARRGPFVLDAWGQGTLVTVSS VL: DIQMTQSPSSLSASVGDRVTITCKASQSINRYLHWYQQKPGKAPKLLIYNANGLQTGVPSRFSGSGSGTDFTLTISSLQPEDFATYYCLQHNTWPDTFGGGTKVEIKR"
result_unit = "pM"
reported = 93

[[record]]
binder = "rat-human chimeric antibody 28 (ch28) (antibody, V domains shown, also called ch28-hIgG1; ch28-hulgG1) VH: EVQLVESGGGLVQPGRSLTLSCVASGFTFRDYGMTWIRQAPGKGLTWVAYISSGSNYIYYAEAVKGRFTISRDNAKNTLYLQMTSLRSEDTALYFCTRRGPFVLDAWGQGASVTVSS VL: DIQMTQSPSFLSASVGDRVTINCKASQSINRYLHWFQQKLGEAPKLLIYNANGLQTGIPSRFSGSGSGTDFTLTISSLQSEDVATYFCLQHNTWPDTFGAGTKLELK"
result_unit = "pM"
reported = 98

